Tested on: 786-O-Hif-Luc cells
Assay summary: Luciferase Assay (HIF responsive element reporter)
Type: cell-based
Condition label: 24 h, 786-O-Hif-Luc cells, about 24 hours; read-out: Mean Luciferease EC50
Experimental endpoint: EC50 (nM)

Molecule	Meas value
N=S1(=O)c2ccc(Oc3cc(F)cc(F)c3)c(Br)c2C(O)C1(F)F (stereo not shown)	540

(I) O=S1(=O)CC(O)c2c1ccc(Oc1cc(F)cc(Cl)c1)c2C(F)F (stereo not shown)
(II) N#Cc1c(Oc2cccc(F)c2)ccc2c1[C@@H](O)CS2(=O)=O
(III) O=S1(=O)c2ccc(Oc3cccc4cn[nH]c34)c(C(F)F)c2C(O)C1(F)F (stereo not shown)
Falling order of EC50, please. I would appreciate it if you listed the labels in the requested order.
III, I, II
(III: 6890 nM, I: 730 nM, II: 490 nM)

(P) N#Cc1cc(F)cc(Oc2ccc3c(c2F)C(O)C(F)(F)S3(=O)=O)c1 (stereo not shown)
(Q) CC(C)Oc1ccc2c(c1C#N)C(C)(O)C(F)(F)S2(=O)=O (stereo not shown)
(R) COc1cc(F)cc(Oc2ccc3c(c2Br)[C@@H](O)C(F)(F)S3(=O)=O)c1
Write the entries in order, lowest recorded EC50 first. I would appreciate it if you listed the labels in the requested order.
R, P, Q
(R: 410 nM, P: 880 nM, Q: 5400 nM)

(P) O=S1(=O)CC(O)c2c1ccc(Oc1cc(F)cc(F)c1)c2C(F)F (stereo not shown)
(Q) N#CC1(COc2ccc3c(c2C(F)F)C(O)C(F)(F)S3(=O)=O)CC1 (stereo not shown)
I'd appreciate it if you could identify which of P and Q has the greater EC50. Response format: the label of the selected entry.
Q

----------
Tested on: HIF-2α HIS TAG-PASB Domain
Assay summary: biochemical
Assay type: binding
Condition label: unnumbered compounds listed by structure and name; read-out: IC50 value in SPA
pIC50: −log10 of the molar value.
Experimental endpoint: pIC50

Item: O=S1(=O)C[C@@H](O)c2c1ccc(Oc1cc(F)cc(Cl)c1)c2Br Test system: HIF-2α HIS TAG-PASB Domain Read-out: pIC50 Value: ?
< 4.00

----------
// values below are reported IC50
Measured on: HIF-2α HIS TAG-PASB Domain (Homo sapiens, UniProt Q99814)
Sequence (Q99814 whole entry, looked up, the tested form may be a part): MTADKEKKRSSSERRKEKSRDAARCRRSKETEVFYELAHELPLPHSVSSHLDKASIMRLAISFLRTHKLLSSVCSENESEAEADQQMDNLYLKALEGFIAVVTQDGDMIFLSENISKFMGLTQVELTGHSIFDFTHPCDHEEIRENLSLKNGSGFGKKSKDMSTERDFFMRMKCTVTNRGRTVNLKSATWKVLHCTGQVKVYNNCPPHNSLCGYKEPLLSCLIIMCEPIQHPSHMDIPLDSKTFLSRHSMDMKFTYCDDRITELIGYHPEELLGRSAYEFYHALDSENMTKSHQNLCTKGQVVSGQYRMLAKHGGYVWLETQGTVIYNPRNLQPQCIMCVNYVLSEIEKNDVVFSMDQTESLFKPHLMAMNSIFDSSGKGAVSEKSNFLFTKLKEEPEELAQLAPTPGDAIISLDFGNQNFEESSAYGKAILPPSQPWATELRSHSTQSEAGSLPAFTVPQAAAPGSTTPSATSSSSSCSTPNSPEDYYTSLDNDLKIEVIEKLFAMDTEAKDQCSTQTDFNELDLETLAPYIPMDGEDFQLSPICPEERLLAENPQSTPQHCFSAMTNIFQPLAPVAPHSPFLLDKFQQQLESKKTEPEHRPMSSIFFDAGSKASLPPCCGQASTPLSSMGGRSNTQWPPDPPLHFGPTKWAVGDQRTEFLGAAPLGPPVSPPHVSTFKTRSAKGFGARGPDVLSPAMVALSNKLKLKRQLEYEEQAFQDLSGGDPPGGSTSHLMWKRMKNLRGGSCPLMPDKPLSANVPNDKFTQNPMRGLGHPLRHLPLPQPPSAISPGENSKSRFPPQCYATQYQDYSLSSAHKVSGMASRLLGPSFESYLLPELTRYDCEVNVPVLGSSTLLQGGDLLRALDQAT
Assay summary: biochemical
Assay type: binding
Condition label: unnumbered compounds listed by structure and name; read-out: IC50 value in SPA

Compound	Experimental endpoint	Meas value
N#Cc1cc(F)cc(Oc2ccc3c(c2C(F)F)C(NCCC(=O)O)C(F)(F)S3(=O)=O)c1 (stereo not drawn)	IC50	> 100 µM
N#Cc1cc(Oc2ccc3c(c2C(F)F)C(=O)C(F)(F)S3(=O)=O)ccc1F	IC50	25 to 100 µM
N#Cc1c(Oc2cc(F)cc(F)c2)ccc2c1C(O)CS2(=N)=O (stereo not drawn)	IC50	> 100 µM
O=S1(=O)C[C@H](O)c2c1ccc(Oc1cncc(Cl)c1)c2Br	IC50	> 100 µM
N#Cc1cc(F)cc(Oc2ccc3c(c2C#CCO)C(O)C(F)(F)S3(=O)=O)c1 (stereo not drawn)	IC50	> 100 µM
O=S1(=O)c2ccc(Oc3cc(F)cc(Cl)c3)c(Br)c2C(O)C12CC2 (stereo not drawn)	IC50	25 to 100 µM
N#Cc1cc(F)cc(Oc2ccc3c(c2C(F)F)C(NCC(F)F)CS3(=O)=O)c1 (stereo not drawn)	IC50	> 100 µM
O=S1(=O)c2ccc(Oc3cc(F)cc(F)c3)c(Br)c2[C@@H](O)C1F (stereo partly drawn)	IC50	> 100 µM
CO/C(=C/C(F)F)c1c(Oc2cc(F)cc(C#N)c2)ccc2c1C(O)C(F)(F)S2(=O)=O (stereo not drawn)	IC50	25 to 100 µM
N=S1(=O)CC(=O)c2c1ccc(Oc1cc(F)cc(F)c1)c2Br (stereo not drawn)	IC50	> 100 µM

Item under review: N#Cc1c(Oc2cncc(Cl)c2)ccc2c1[C@@H](O)CS2(=O)=O . Reported IC50?
25 to 100 µM

Item under review: N#Cc1cncc(Oc2ccc3c(c2C#N)[C@@H](O)CS3(=O)=O)c1 . Reported IC50?
25 to 100 µM

Item under review: N#Cc1cccc(Oc2ccc3c(c2C(F)F)C(=O)C(F)(F)S3(=O)=O)c1 . Reported IC50?
25 to 100 µM

Item under review: O=C1CS(=O)(=O)c2ccc(Oc3ccc(F)c(F)c3)c(C(F)F)c21 . Reported IC50?
> 100 µM

Item under review: O=C1CS(=O)(=O)c2ccc(Oc3cc(F)cc(F)c3)c(Br)c21 . Reported IC50?
> 100 µM
